# credit: paper PMC11396368

assay: Cytotoxicity in RAW 264.7 cells (alamarBlue); conditions: mouse
Attribute measured: CC50 at 72 h

O=[N+]([O-])c1cn2c(n1)OC[C@@H](OCc1ccc(OC(F)(F)F)cc1)C2 [Pretomanid]
> 200 µM
